The origin of these recorded values is patent US6653282B1.

- target: intercellular adhesion molecule (ICAM-1) (human, UniProt P05362 28-532)
- Sequence (P05362 28-532): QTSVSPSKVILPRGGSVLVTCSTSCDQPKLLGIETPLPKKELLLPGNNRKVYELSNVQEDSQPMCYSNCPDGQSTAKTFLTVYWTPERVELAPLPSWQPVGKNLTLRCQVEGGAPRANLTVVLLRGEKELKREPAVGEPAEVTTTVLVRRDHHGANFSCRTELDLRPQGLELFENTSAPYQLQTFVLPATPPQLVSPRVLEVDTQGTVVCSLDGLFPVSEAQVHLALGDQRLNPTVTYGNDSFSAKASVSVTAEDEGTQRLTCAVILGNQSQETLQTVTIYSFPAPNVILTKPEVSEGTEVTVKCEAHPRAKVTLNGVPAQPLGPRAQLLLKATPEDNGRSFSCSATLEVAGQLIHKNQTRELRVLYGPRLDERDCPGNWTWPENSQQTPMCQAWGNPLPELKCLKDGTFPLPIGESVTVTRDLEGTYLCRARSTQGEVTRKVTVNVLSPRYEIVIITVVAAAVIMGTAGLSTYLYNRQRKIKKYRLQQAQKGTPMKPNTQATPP
- experiment.notes: cell-based or functional assay
Bridge positions count the residues as written; N and C are the ends. Square brackets hold non-standard residues; d marks the D form. Ends that are not written are not given here. Pen = CC(C)(S)[C@H](N)C(=O)O
measured.metric: Clumping Index

Reference set (6 entries):
binder	Clumping Index
[Pen]DLSYSLDDLRC (disulfide 1-12; not fully specified) [cLBE-L]	75 clumping index (0-100)
[Pen]DLRNVKKLGGC (disulfide 1-12; not fully specified) [cLBE-C]	82 clumping index (0-100)
[Pen]AKDIIYIIGIC (disulfide 1-12; not fully specified) [cLAB-R]	77 clumping index (0-100)
[Pen]GGLLRALNEC (disulfide 1-11; not fully specified) [cLBE-R]	100 clumping index (0-100)
GVDVDQDGETELIGAPLFYGEQRG [LAB.2]	48 clumping index (0-100)
[Pen]GVDVDQDGETC (disulfide 1-12; not fully specified) [cLAB.2-L]	50 clumping index (0-100)

Provide the reported Clumping Index of each entry below, same order.
1. XITDGEATDSGC (not fully specified; cyclic: disulfide bridge between the amino-terminal penicillamine (Xaa in the Sequence Listing) or cysteine and the carboxy-terminal cysteine) [cLAB-L]
2. DLSYSLDDLRNVKKLGGDLLRALNE [LBE]

78 clumping index (0-100)
73 clumping index (0-100)

Provide the reported Clumping Index of each entry below, same order.
1. ITDGEATDSGNIDAAKDIIYIIGI [LAB]
2. ENLARLLDGGLKKVNRLDDLSYSLD [EBL]
3. [Pen]DSGNIDAAKDC (disulfide 1-12; not fully specified) [cLAB-C]

1. 75 clumping index (0-100)
2. 100 clumping index (0-100)
3. 80 clumping index (0-100)
